Collected pKd values appear next to each entry.
molecular target: T1, vimentin^ROD (residues T99–I249), wild-type (human, UniProt P08670 99-249, NT647 fluorescent dye (Monolith NT His-Tag Labelling Kit RED-tris-NTA)); test: MST; 50 nM NT647-labelled vimentin^ROD, linker titrated 780 nM to 800 uM; 150 mM NaCl, 20 mM HEPES pH 7.5, 0.015% Tween 20; 25 C; one-site binding model; details: both partners purified
T1 construct: vimentin, human, coils 1A and 1B of the central rod domain, residues T99-I249; Non-cleavable His tag; also called wild-type vimentin^ROD
T1 sequence (P08670 99-249): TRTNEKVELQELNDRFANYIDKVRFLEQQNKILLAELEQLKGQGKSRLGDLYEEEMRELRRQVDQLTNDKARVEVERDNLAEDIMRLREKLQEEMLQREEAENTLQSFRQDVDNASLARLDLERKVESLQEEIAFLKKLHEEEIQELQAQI
Reminder that pKd is minus the log10 of a molar concentration.

Sample records with pKd:
INSERT INTO results (binder, value_kind, recorded_result) VALUES
  ('periplakin linker domain (K1646–K1756) R1713E (domain or fragment, human, UniProt O60437 1646-1756, looked up, periplakin linker domain, human, residues K1646-K1756; also called periplakin mutant R1713E; periplakin linker mutant R1713E) KREQRENHLRRSIVVIHPDTGRELSPEEAHRAGLIDWNMFVKLRSQECDWEEISVKGPNGESSVIHDEKSGKKFSIEEALQSGRLTPAQYDRYVNKDMSIQELAVLVSGQK', 'pKd', 3.70),
  ('periplakin linker domain (K1646–K1756), wild-type (domain or fragment, human, UniProt O60437 1646-1756, looked up, periplakin linker domain, human, residues K1646-K1756; Vector pGEX-6P-1; also called wild-type periplakin linker; WT) KREQRENHLRRSIVVIHPDTGRELSPEEAHRAGLIDWNMFVKLRSQECDWEEISVKGPNGESSVIHDRKSGKKFSIEEALQSGRLTPAQYDRYVNKDMSIQELAVLVSGQK', 'pKd', 4.15),
  ('periplakin linker domain (K1646–K1756) R1655E/R1656E (domain or fragment, human, UniProt O60437 1646-1756, looked up, periplakin linker domain, human, residues K1646-K1756) KREQRENHLEESIVVIHPDTGRELSPEEAHRAGLIDWNMFVKLRSQECDWEEISVKGPNGESSVIHDRKSGKKFSIEEALQSGRLTPAQYDRYVNKDMSIQELAVLVSGQK', 'pKd', 3.42),
  ('periplakin linker domain (K1646–K1756) K1687E/R1689E (domain or fragment, human, UniProt O60437 1646-1756, looked up, periplakin linker domain, human, residues K1646-K1756) KREQRENHLRRSIVVIHPDTGRELSPEEAHRAGLIDWNMFVELESQECDWEEISVKGPNGESSVIHDRKSGKKFSIEEALQSGRLTPAQYDRYVNKDMSIQELAVLVSGQK', 'pKd', 3.52),
  ('desmoplakin linker domain (Q2454–N2565) E2495K/C2497R (domain or fragment, human, UniProt P15924 2454-2565, looked up, desmoplakin linker domain, human, residues Q2454-N2565) QTSQKNTLRKRRVVIVDPETNKEMSVQEAYKKGLIDYETFKKLREQECEWEEITITGSDGSTRVVLVDRKTGSQYDIQDAIDKGLVDRKFFDQYRSGSLSLTQFADMISLKN', 'pKd', 3.22);

Q: Look up pKd for this binder: periplakin linker domain (K1646–K1756) R1737E/K1741E (domain or fragment, human, UniProt O60437 1646-1756, looked up, periplakin linker domain, human, residues K1646-K1756; also called control double mutant) KREQRENHLRRSIVVIHPDTGRELSPEEAHRAGLIDWNMFVKLRSQECDWEEISVKGPNGESSVIHDRKSGKKFSIEEALQSGRLTPAQYDEYVNEDMSIQELAVLVSGQK
Ans: 4.32

Q: Report pKd for periplakin linker domain (K1646–K1756) R1713E/K1714E (domain or fragment, human, UniProt O60437 1646-1756, looked up, periplakin linker domain, human, residues K1646-K1756) KREQRENHLRRSIVVIHPDTGRELSPEEAHRAGLIDWNMFVKLRSQECDWEEISVKGPNGESSVIHDEESGKKFSIEEALQSGRLTPAQYDRYVNKDMSIQELAVLVSGQK please.
Ans: 3.87
